Data provenance: ChEMBL document CHEMBL3232832

# Experimental System: Neuronal acetylcholine receptor subunit alpha-7 (Rattus norvegicus)
# Sequence (Q05941 whole entry): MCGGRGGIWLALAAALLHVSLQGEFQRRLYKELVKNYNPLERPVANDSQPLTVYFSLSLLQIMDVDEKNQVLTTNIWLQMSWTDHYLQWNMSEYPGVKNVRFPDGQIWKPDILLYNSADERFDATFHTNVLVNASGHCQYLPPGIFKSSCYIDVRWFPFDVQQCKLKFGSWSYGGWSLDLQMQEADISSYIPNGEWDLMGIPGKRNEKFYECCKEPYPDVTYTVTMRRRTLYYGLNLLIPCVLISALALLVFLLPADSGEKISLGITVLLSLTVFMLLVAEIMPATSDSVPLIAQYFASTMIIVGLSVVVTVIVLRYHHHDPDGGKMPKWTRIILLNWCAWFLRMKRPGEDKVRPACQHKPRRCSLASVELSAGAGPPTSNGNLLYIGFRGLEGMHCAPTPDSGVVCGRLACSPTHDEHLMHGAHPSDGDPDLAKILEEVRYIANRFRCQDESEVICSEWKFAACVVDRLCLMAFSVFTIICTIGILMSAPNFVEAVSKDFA
# Test Description: Displacement of [3H]MLA from rat alpha7 nAChR
Quantity Name: pKi
pKi here is simply -log10 of the concentration when that concentration is written in mol/L.

[18F]c1ccccc1-c1cnc2c(c1)CC1(CN3CCC1CC3)O2 (configuration not stated) :: 9.70

Now take the following compound into account.
Input: Param item = [11CH3]N1CC2CN(c3ccc4oc5ccccc5c(=O)c4c3)CC2C1 (configuration not stated) ; retrieve measured pKi.
Output: 7.96

---

# Test Description: Selectivity ratio of Ki for alpha4beta2 nAChR (unknown origin) to Ki for rat cortical membrane alpha7 nAChR
Quantity Name: Ratio Ki
Could you respond with only the numeric value?

Input: Param item = O=S1(=O)c2cc(N3CCN4CCC3CC4)ccc2-c2cccc(F)c21 ; retrieve measured Ratio Ki.
Output: 1370

Input: Same read-out for O=S1(=O)c2ccccc2-c2c(N3CCN4CCC3CC4)ccc(F)c21 ?
Output: 210

Input: Same read-out for O=S1(=O)c2ccc(I)cc2-c2ccc(N3CCN4CCC3CC4)cc21 ?
Output: 63

Input: Same read-out for O=S1(=O)c2ccc(F)cc2-c2ccc(N3CCN4CCC3CC4)cc21 ?
Output: 663

Input: Same read-out for O=S1(=O)c2ccccc2-c2ccc(N3CCN4CCC3CC4)c(F)c21 ?
Output: 66
